Sourced from ChEMBL document CHEMBL2218924

- Assay target: Protein-tyrosine kinase 2-beta (Homo sapiens) (UniProt Q14289)
- Sequence (Q14289 whole entry, looked up): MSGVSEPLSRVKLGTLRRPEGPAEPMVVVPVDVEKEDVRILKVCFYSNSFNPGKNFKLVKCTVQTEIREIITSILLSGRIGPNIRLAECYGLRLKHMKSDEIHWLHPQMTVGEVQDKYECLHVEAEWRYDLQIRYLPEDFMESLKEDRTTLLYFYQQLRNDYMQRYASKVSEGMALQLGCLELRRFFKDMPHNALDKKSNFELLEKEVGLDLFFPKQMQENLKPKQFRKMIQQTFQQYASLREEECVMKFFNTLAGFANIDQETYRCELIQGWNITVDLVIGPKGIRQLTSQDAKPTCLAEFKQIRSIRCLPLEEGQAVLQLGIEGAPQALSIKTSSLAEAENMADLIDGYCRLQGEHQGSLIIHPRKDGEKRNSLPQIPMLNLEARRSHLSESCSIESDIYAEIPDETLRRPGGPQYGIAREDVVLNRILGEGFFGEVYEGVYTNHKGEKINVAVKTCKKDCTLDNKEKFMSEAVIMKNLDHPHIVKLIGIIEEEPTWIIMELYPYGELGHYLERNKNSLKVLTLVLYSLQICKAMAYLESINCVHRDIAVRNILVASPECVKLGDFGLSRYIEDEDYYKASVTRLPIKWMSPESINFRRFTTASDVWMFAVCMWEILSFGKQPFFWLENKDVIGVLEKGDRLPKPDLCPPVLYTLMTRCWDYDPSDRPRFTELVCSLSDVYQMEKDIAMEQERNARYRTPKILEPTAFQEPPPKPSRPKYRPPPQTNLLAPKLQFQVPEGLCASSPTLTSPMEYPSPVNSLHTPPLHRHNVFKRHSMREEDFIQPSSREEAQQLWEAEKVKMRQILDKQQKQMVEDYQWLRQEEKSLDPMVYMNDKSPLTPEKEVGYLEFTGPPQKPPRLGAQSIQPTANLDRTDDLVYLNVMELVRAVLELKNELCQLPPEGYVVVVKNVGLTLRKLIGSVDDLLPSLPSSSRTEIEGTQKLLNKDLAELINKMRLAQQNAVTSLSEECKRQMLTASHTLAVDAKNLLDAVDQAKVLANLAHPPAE
- Assay context: at 1 µM
Measure: residual activity (%)

[[record]]
test_smiles = "Cc1cc(Nc2nc(-c3ccccc3)nc3ccccc23)n[nH]1"
numeric_value = 20

[[record]]
test_smiles = "O=c1cc(-c2cccc3c2Sc2ccccc2S3)oc(N2CCOCC2)c1"
numeric_value = 91

[[record]]
test_smiles = "COc1ccc(CNc2nc(N(CCO)CCO)nc3c2ncn3C(C)C)cc1"
numeric_value = 83

[[record]]
test_smiles = "N#C/C(=C(\\N)Sc1ccc(N)cc1)c1ccccc1C(F)(F)F"
numeric_value = 100

[[record]]
test_smiles = "CO[C@H]1[C@@H](OC)C[C@H](C)[C@@H](OC)C2=CC(=O)C=C(NC(=O)/C(C)=C/C=C/[C@H](OC)[C@@H](OC(N)=O)/C(C)=C/[C@@H]1C)C2=O"
numeric_value = 124

[[record]]
test_smiles = "CC(C)n1cnc2c(NCc3ccccc3)nc(NCCCO)nc21"
numeric_value = 102

[[record]]
test_smiles = "CCOc1cc2ncnc(Nc3cccc(Br)c3)c2cc1OCC"
numeric_value = 110

[[record]]
test_smiles = "O=Nc1c(-c2c(O)[nH]c3ccccc23)[nH]c2ccccc12"
numeric_value = 14

[[record]]
test_smiles = "CC[n+]1c(/C=C/N(C)c2ccccc2)n(-c2ccccc2)c2ccc(-c3nc4ccccc4s3)cc21"
numeric_value = 139

[[record]]
test_smiles = "Cn1cnc2cc3c(Nc4cccc(Br)c4)ncnc3cc21"
numeric_value = 119

[[record]]
test_smiles = "O=C(O)c1ccc2c3c1cccc3c(=O)n1c3ccccc3nc21"
numeric_value = 88

[[record]]
test_smiles = "COc1cc2ncnc(N3CCN(C(=O)Nc4ccc(Oc5ccccc5)cc4)CC3)c2cc1OC"
numeric_value = 122

[[record]]
test_smiles = "c1ccc(-c2n[nH]cc2-c2ccnc3ccccc23)nc1"
numeric_value = 109


---

# maps each entry to its residual activity
- Assay target: Insulin-like growth factor 1 receptor (Homo sapiens)
- Assay context: at 10 µM
Measure: residual activity (%)

[[record]]
test_smiles = "O=C1c2ccccc2-[n+]2ccc3c([nH]c4ccccc43)c21"
measure = "residual activity"
numeric_value = 92

[[record]]
test_smiles = "Cc1ccc(NC2=CC(=O)c3sc(C)nc3C2=O)cc1"
measure = "residual activity"
numeric_value = 92

[[record]]
test_smiles = "COc1ccc(C(=O)Nc2sc3c(c2C(N)=O)CCCC3)cc1OC"
measure = "residual activity"
numeric_value = 88

[[record]]
test_smiles = "O=C1NC(=O)/C(=C\\c2ccc3nccnc3c2)S1"
measure = "residual activity"
numeric_value = 89


---

# maps each entry to its residual activity
- Assay target: Tyrosine-protein kinase Tec (Homo sapiens) (UniProt P42680)
- Sequence (whole entry): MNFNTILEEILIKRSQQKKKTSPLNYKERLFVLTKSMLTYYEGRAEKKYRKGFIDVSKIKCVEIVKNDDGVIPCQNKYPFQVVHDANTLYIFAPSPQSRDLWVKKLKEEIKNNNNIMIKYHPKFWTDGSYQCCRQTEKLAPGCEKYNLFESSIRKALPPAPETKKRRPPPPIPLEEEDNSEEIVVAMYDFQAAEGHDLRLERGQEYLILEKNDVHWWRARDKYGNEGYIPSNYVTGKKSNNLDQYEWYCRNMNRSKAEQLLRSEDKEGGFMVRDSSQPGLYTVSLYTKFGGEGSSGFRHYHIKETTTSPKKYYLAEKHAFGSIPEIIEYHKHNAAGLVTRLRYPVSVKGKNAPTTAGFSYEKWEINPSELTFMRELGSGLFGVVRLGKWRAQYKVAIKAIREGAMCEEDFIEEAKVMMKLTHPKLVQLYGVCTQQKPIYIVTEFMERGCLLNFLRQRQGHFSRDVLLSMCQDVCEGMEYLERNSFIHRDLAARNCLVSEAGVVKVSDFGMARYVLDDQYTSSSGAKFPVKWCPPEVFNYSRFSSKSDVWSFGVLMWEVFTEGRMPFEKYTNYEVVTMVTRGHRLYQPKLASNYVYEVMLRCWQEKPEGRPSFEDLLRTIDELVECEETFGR
- Assay context: at 1 µM
Measure: residual activity

[[record]]
test_smiles = "N#C/C(=C(\\N)Sc1ccc(N)cc1)c1ccccc1C(F)(F)F"
measure = "residual activity"
result = "93%"

[[record]]
test_smiles = "Cc1ccc(S(=O)(=O)/C=C/C#N)cc1"
measure = "residual activity"
result = "95%"

[[record]]
test_smiles = "O=C1NC(=O)/C(=C\\c2ccc3nccnc3c2)S1"
measure = "residual activity"
result = "98%"


---

- Assay target: Serine/threonine-protein kinase MRCK beta (Homo sapiens) (UniProt Q9Y5S2)
- Sequence (Q9Y5S2 whole entry): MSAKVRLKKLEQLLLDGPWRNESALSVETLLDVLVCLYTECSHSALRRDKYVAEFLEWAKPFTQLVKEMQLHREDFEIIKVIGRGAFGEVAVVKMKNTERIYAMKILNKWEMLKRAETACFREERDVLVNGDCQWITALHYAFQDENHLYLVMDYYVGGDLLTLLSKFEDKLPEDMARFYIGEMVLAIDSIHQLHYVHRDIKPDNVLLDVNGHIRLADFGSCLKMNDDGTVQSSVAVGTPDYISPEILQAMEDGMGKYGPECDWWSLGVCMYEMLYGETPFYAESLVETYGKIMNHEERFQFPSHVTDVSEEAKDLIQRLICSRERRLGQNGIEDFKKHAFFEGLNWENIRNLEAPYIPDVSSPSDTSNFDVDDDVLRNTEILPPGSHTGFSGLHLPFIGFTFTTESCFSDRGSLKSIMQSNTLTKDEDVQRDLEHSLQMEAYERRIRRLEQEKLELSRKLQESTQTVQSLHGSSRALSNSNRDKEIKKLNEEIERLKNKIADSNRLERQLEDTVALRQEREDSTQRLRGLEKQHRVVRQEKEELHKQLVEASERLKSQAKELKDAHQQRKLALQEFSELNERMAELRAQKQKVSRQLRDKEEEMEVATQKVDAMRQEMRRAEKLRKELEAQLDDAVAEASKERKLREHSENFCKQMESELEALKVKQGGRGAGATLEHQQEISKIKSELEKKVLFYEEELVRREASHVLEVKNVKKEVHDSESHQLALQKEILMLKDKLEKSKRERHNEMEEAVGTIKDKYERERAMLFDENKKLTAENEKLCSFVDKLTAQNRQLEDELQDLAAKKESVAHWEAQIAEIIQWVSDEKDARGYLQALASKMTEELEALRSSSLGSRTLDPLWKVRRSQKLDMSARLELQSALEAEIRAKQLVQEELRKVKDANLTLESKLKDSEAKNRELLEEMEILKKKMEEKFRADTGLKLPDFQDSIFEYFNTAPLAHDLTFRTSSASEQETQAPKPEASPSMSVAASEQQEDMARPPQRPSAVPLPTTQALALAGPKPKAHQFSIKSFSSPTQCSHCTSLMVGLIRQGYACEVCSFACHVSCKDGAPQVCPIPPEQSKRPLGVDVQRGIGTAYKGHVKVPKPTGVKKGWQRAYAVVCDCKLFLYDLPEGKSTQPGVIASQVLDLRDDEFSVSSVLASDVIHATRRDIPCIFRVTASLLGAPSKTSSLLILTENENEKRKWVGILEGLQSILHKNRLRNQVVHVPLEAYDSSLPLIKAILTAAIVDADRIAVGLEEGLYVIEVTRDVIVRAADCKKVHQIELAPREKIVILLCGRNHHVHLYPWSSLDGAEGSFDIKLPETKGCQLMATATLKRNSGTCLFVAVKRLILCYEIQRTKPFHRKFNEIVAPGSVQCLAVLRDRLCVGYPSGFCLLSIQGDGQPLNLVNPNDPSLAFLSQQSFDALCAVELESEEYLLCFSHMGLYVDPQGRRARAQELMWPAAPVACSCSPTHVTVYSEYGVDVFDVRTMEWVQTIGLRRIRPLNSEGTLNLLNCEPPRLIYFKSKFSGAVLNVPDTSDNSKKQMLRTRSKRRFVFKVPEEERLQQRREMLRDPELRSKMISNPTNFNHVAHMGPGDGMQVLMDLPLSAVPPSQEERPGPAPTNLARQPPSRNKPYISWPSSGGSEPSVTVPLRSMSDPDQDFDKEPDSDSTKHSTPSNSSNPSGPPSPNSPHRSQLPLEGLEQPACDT
- Assay context: at 10 µM
Decision: residual activity beneath 90% gives yes; residual activity meeting or exceeding 90% gives no.

[[record]]
test_smiles = "Nc1nc(Nc2ccc(S(N)(=O)=O)cc2)nn1C(=S)Nc1c(F)cccc1F"
label_value = "yes"

[[record]]
test_smiles = "CC#CC(=O)Nc1cc2c(Nc3ccc(F)c(Cl)c3)ncnc2cn1"
label_value = "yes"

[[record]]
test_smiles = "NC(=O)c1ccc2[nH]c(-c3ccc(Oc4ccc(Cl)cc4)cc3)nc2c1"
label_value = "no"

[[record]]
test_smiles = "CN(C)c1ccc(/C=C2\\C(=O)Nc3ccccc32)cc1"
label_value = "no"

[[record]]
test_smiles = "Cc1ccc(NC2=CC(=O)c3sc(C)nc3C2=O)cc1"
label_value = "yes"

[[record]]
test_smiles = "CO[C@H]1[C@@H](OC)C[C@H](C)[C@@H](OC)C2=CC(=O)C=C(NC(=O)/C(C)=C/C=C/[C@H](OC)[C@@H](OC(N)=O)/C(C)=C/[C@@H]1C)C2=O"
label_value = "yes"

[[record]]
test_smiles = "CC(=O)c1ccc(N2CCOCC2)cc1O"
label_value = "yes"

[[record]]
test_smiles = "COc1cc2ncnc(Nc3ccc(O)c(Br)c3)c2cc1OC"
label_value = "yes"

[[record]]
test_smiles = "Ic1cccc(CSc2nnc(-c3ccncc3)o2)c1"
label_value = "yes"


---

- Assay target: Protein kinase C alpha type (Homo sapiens)
- Assay context: at 1 µM
# maps each entry to its residual activity
Measure: residual activity (%)

[[record]]
test_smiles = "CO[C@H]1C[C@@H]2CC[C@@H](C)[C@@](O)(O2)C(=O)C(=O)N2CCCC[C@H]2C(=O)O[C@H]([C@H](C)C[C@@H]2CC[C@@H](O)[C@H](OC)C2)CC(=O)[C@H](C)/C=C(\\C)[C@@H](O)[C@@H](OC)C(=O)[C@H](C)C[C@H](C)/C=C/C=C/C=C/1C"
unit_name = "%"
numeric_value = 99

[[record]]
test_smiles = "Cc1cncc2cccc(S(=O)(=O)N3CCCN(C(=O)CN)C[C@H]3C)c12"
unit_name = "%"
numeric_value = 99

[[record]]
test_smiles = "CC[n+]1c(/C=C/N(C)c2ccccc2)n(-c2ccccc2)c2ccc(-c3nc4ccccc4s3)cc21"
unit_name = "%"
numeric_value = 112

[[record]]
test_smiles = "CNc1cc2c(Nc3cccc(Br)c3)ncnc2cn1"
unit_name = "%"
numeric_value = 106

[[record]]
test_smiles = "O=c1c2ccccc2[nH]c(=S)n1CCN1CCC(=C(c2ccc(F)cc2)c2ccc(F)cc2)CC1"
unit_name = "%"
numeric_value = 108

[[record]]
test_smiles = "COc1ccc(CNc2nc(N(CCO)CCO)nc3c2ncn3C(C)C)cc1"
unit_name = "%"
numeric_value = 34

[[record]]
test_smiles = "Oc1n[nH]c2nnc(-c3c(-c4ccccc4)nn4ccccc34)cc12"
unit_name = "%"
numeric_value = 102

[[record]]
test_smiles = "COc1cc2ncnc(Nc3ccc(O)c(Br)c3)c2cc1OC"
unit_name = "%"
numeric_value = 107

[[record]]
test_smiles = "Cn1cnc2cc3c(Nc4cccc(Br)c4)ncnc3cc21"
unit_name = "%"
numeric_value = 101

[[record]]
test_smiles = "Oc1c2ccccc2c2c3c(cccc13)N=N2"
unit_name = "%"
numeric_value = 98

[[record]]
test_smiles = "Nc1nc(Nc2ccc(S(N)(=O)=O)cc2)nn1C(=S)Nc1c(F)cccc1F"
unit_name = "%"
numeric_value = 51

[[record]]
test_smiles = "COc1ccc(C(=O)Nc2sc3c(c2C(N)=O)CCCC3)cc1OC"
unit_name = "%"
numeric_value = 106

[[record]]
test_smiles = "Cc1ccc(S(=O)(=O)/C=C/C#N)cc1"
unit_name = "%"
numeric_value = 88

[[record]]
test_smiles = "O=C1c2ccccc2-[n+]2ccc3c([nH]c4ccccc43)c21"
unit_name = "%"
numeric_value = 106

[[record]]
test_smiles = "Nc1n[nH]c2nnc(-c3c(-c4ccccc4)nn4ccccc34)cc12"
unit_name = "%"
numeric_value = 97

[[record]]
test_smiles = "CC(C)n1cnc2c(NCc3ccccc3)nc(NCCCO)nc21"
unit_name = "%"
numeric_value = 99

[[record]]
test_smiles = "CC#CC(=O)Nc1cc2c(Nc3ccc(F)c(Cl)c3)ncnc2cn1"
unit_name = "%"
numeric_value = 103

[[record]]
test_smiles = "CC(=O)O/N=C1\\C(=C2\\C(=O)Nc3cc(Br)ccc32)Nc2ccccc21"
unit_name = "%"
numeric_value = 105

[[record]]
test_smiles = "Cc1nc(-c2ccccc2)c(-c2ccncc2)o1"
unit_name = "%"
numeric_value = 113

[[record]]
test_smiles = "CC(=O)c1ccc(N2CCOCC2)cc1O"
unit_name = "%"
numeric_value = 101

[[record]]
test_smiles = "O=C1Nc2cc(Br)ccc2/C1=C1/Nc2ccccc2/C1=N\\O"
unit_name = "%"
numeric_value = 98

[[record]]
test_smiles = "Cn1cc(/C=C2\\C(=O)Nc3ccc(S(N)(=O)=O)cc32)c2ccccc21"
unit_name = "%"
numeric_value = 108

[[record]]
test_smiles = "CO[C@H]1[C@@H](OC)C[C@H](C)[C@@H](OC)C2=CC(=O)C=C(NC(=O)/C(C)=C/C=C/[C@H](OC)[C@@H](OC(N)=O)/C(C)=C/[C@@H]1C)C2=O"
unit_name = "%"
numeric_value = 110

